The entries below come with measured inhibition values attached.
Assay procedure: inhibitors of insulin promoter-driven GFP, primary screen, imaging, TRM-6 cells, eGFP reporter, cell count (AID 1273)
Experimental conditions: at 2 µM, reporter expression induced with tamoxifen; stronger effect = higher value
Hit rate of the full screen: of about 130,000 compounds, about 1,200 (0.92%) were called active. Many of the other results were omitted from the sample, so actives are more common in it than they were.
Endpoint: inhibition (%)

[[record]]
compound = "CC(=O)c1cnc(SCC(=O)O)nc1C"
endpoint = "inhibition"
result_number = 26.7

[[record]]
compound = "Cc1ccc(NC(=O)N2CCC(c3nc4c(nnn4Cc4c(F)cccc4Cl)c(=O)[nH]3)CC2)cc1"
endpoint = "inhibition"
result_number = 6.25

[[record]]
compound = "O=[N+]([O-])/C(N=Nc1ccccc1)=N\\Nc1ccccc1"
endpoint = "inhibition"
result_number = 7.14

[[record]]
compound = "CCOc1ccc(CCNC(=O)CSc2cc(=O)n(C)c3ccc(Cl)cc23)cc1OCC"
endpoint = "inhibition"
result_number = -11.8

[[record]]
compound = "CC(=O)c1cc(C#N)c(SCC(=O)C(C)(C)C)nc1C"
endpoint = "inhibition"
result_number = 65.4

[[record]]
compound = "COc1ccccc1C1=Nc2cccc3cccc(c23)N1"
endpoint = "inhibition"
result_number = -6.67

[[record]]
compound = "Cc1nn(CC#N)c(=O)n1N(C)c1ncc(C(F)(F)F)cc1Cl"
endpoint = "inhibition"
result_number = 30

[[record]]
compound = "CCOc1ccc(CCN2C(=O)c3cccnc3C2=O)cc1OCC"
endpoint = "inhibition"
result_number = 68.4

[[record]]
compound = "CCCCNC(=O)N1CCN(S(C)(=O)=O)CC1"
endpoint = "inhibition"
result_number = -42.9

[[record]]
compound = "CC1Cc2ccccc2N1S(=O)(=O)c1c(N)n(C)c(=O)n(C)c1=O (stereo unspecified)"
endpoint = "inhibition"
result_number = -66.7

[[record]]
compound = "Cc1cccc(N2C(=O)c3cccnc3C2=O)c1"
endpoint = "inhibition"
result_number = 11.4


----------
Assay procedure: inhibitors of insulin promoter-driven GFP, primary screen, imaging, TRM-6 cells, eGFP reporter, cell count (AID 1273)
Experimental conditions: at 2 µM, reporter expression induced with tamoxifen; stronger effect = higher value
In all, about 130,000 compounds went through this assay and about 1,200 (0.92%) were called active. This is one part of a sample in which actives are shown more often than they occur.
Endpoint: inhibition (%)

[[record]]
compound = "CNS(=O)(=O)c1ccc(NC(=O)C2CC(=O)N(c3ccc(Cl)cc3)C2)cc1 (stereo not given)"
endpoint = "inhibition"
result_unit = "%"
result_number = 63.6

[[record]]
compound = "Cc1ccc(NC(=O)C2(N3CCC3=O)CCCCC2)cc1"
endpoint = "inhibition"
result_unit = "%"
result_number = -35.7

[[record]]
compound = "COc1cc(C(=O)Nc2nccs2)cc(OC)c1OC"
endpoint = "inhibition"
result_unit = "%"
result_number = -25.3

[[record]]
compound = "CN(CC(=O)Nc1cccc2c1CCCC2)S(=O)(=O)c1ccc(Cl)cc1"
endpoint = "inhibition"
result_unit = "%"
result_number = 38.5

[[record]]
compound = "CCCCOC(=O)Nc1nccs1"
endpoint = "inhibition"
result_unit = "%"
result_number = 93.8


----------
Assay procedure: inhibitors of insulin promoter-driven GFP, primary screen, imaging, TRM-6 cells, eGFP reporter, cell count (AID 1273);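 for normalized cell count: cells exposed to compound for 48 h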
Experimental conditions: at 2 µM, reporter expression induced with tamoxifen; measured here: cell count, toxicity
Out of some 130,000 compounds screened, about 1,200 (0.92%) were called active. The sample as a whole holds a higher share of actives than the screen did.
Endpoint: normalized cell count (%)

[[record]]
compound = "CN(C)CCNC(CC(=O)Nc1ccc(Cl)c(Cl)c1)C(=O)O (stereo not drawn)"
endpoint = "normalized cell count"
result_number = 104

[[record]]
compound = "Cc1nc(NC(=O)CN(C)S(=O)(=O)c2ccc(Cl)cc2)sc1C"
endpoint = "normalized cell count"
result_number = 67.9

[[record]]
compound = "Nc1cccc(CCc2nc3ccccc3[nH]2)c1"
endpoint = "normalized cell count"
result_number = 146

[[record]]
compound = "CCOC12CC(C)(C)CC(C)(CC3=C1C(=O)CC(C)(C)C3)C2 (stereo not drawn)"
endpoint = "normalized cell count"
result_number = 4.89

[[record]]
compound = "COC(=O)c1ccc(CN(c2ccccc2OC)S(=O)(=O)c2cccs2)o1"
endpoint = "normalized cell count"
result_number = 71.6

[[record]]
compound = "O=C(COC(=O)c1ccc(O)cc1)Nc1nccs1"
endpoint = "normalized cell count"
result_number = 74.1

[[record]]
compound = "CCOC(=O)c1sc(NC(=O)CSc2nc(O)c(Cc3ccccc3)c(=O)[nH]2)nc1C"
endpoint = "normalized cell count"
result_number = 56.7

[[record]]
compound = "CCN(/N=C/c1ccc(N(C)C)cc1)c1nc2ccccc2[nH]1"
endpoint = "normalized cell count"
result_number = 159

[[record]]
compound = "CCCC(NC(=O)c1ccccc1)c1nc2ccccc2n1Cc1ccc(C(=O)OC)o1 (stereo not drawn)"
endpoint = "normalized cell count"
result_number = 206

[[record]]
compound = "COc1ccccc1NC(=O)CC(NCCN(C)C)C(=O)O (stereo not drawn)"
endpoint = "normalized cell count"
result_number = 43

[[record]]
compound = "CCCCOC(=O)Nc1nccs1"
endpoint = "normalized cell count"
result_number = 53.2

[[record]]
compound = "CNS(=O)(=O)c1ccc(NC(=O)C2CC(=O)N(c3ccc(Cl)cc3)C2)cc1 (stereo not drawn)"
endpoint = "normalized cell count"
result_number = 32.9

[[record]]
compound = "COC(=O)C(CC(=O)Nc1cc(C)ccc1C)Nc1ccccc1OC (stereo not drawn)"
endpoint = "normalized cell count"
result_number = 131

[[record]]
compound = "COC(=O)NNC1=CC(=O)CC(C)(C)C1"
endpoint = "normalized cell count"
result_number = 74.6

[[record]]
compound = "Cc1ccc(OCCCn2c(=O)oc3ccccc32)cc1"
endpoint = "normalized cell count"
result_number = 84.1

[[record]]
compound = "Cc1ccc(CNC(=O)CCNS(=O)(=O)c2ccc(Br)s2)cc1"
endpoint = "normalized cell count"
result_number = 94.3

[[record]]
compound = "CN(CC(=O)Nc1cccc2c1CCCC2)S(=O)(=O)c1ccc(Cl)cc1"
endpoint = "normalized cell count"
result_number = 112

[[record]]
compound = "CN(CC(=O)NCCc1ccccn1)S(=O)(=O)c1ccc(Cl)cc1"
endpoint = "normalized cell count"
result_number = 83.8


----------
Assay procedure: inhibitors of insulin promoter-driven GFP, primary screen, imaging, TRM-6 cells (human fetal islet line), eGFP reporter, cell count (AID 1273)
Experimental conditions: at 2 µM, reporter expression induced with tamoxifen; measured here: cell count, toxicity
The whole screen tested about 130,000 compounds, of which about 1,200 (0.92%) were called active. This is one part of a sample in which actives are shown more often than they occur.
Endpoint: normalized cell count

[[record]]
molecule = "CC(NC(=S)NC1CCCCC1)C(c1ccccc1)N1CCOCC1 (stereo unspecified)"
endpoint = "normalized cell count"
result = "111%"

[[record]]
molecule = "C/C(Cn1nnc2ccccc21)=N\\OC(=O)c1cc(F)c(F)cc1Cl"
endpoint = "normalized cell count"
result = "99.6%"

[[record]]
molecule = "C=CCC1(CC=C)CCCN1C(=O)CC1C(=O)NCCN1Cc1ccccc1OC (stereo unspecified)"
endpoint = "normalized cell count"
result = "91.1%"

[[record]]
molecule = "Cc1ccsc1C(=O)N/N=C/c1ccc([N+](=O)[O-])cc1"
endpoint = "normalized cell count"
result = "153%"

[[record]]
molecule = "Cc1nn2c3cc(N4CCOCC4)ccc3nc2c2ccccc12"
endpoint = "normalized cell count"
result = "79.7%"

[[record]]
molecule = "NC(=S)N/N=C/c1ccc([N+](=O)[O-])cc1"
endpoint = "normalized cell count"
result = "109%"

[[record]]
molecule = "O=c1c([N+](=O)[O-])cccn1Cc1ccc(F)cc1Cl"
endpoint = "normalized cell count"
result = "83.1%"

[[record]]
molecule = "O=C1c2ccccc2C(=O)N1CCC(O)C[N+](=O)[O-] (stereo unspecified)"
endpoint = "normalized cell count"
result = "90.3%"

[[record]]
molecule = "Cc1ccc(N(C(=O)Cc2cccs2)C2C=CS(=O)(=O)C2)cc1Cl (stereo unspecified)"
endpoint = "normalized cell count"
result = "128%"

[[record]]
molecule = "C/C(=C\\C(=O)c1ccccc1)Nc1cccc(O)c1"
endpoint = "normalized cell count"
result = "193%"

[[record]]
molecule = "Cc1nnsc1C(=O)N/N=C/c1cccc(C(F)(F)F)c1"
endpoint = "normalized cell count"
result = "39.6%"

[[record]]
molecule = "N/C(=N\\OC(=O)/C=C/c1ccccc1)c1ccc(Br)cc1"
endpoint = "normalized cell count"
result = "133%"

[[record]]
molecule = "CC(=O)c1ccc(N2CCN(S(=O)(=O)c3c(C)[nH]c(=O)[nH]c3=O)CC2)cc1"
endpoint = "normalized cell count"
result = "114%"

[[record]]
molecule = "CCn1c(SCc2ccccc2)nc2c(c1=O)SCC2"
endpoint = "normalized cell count"
result = "108%"

[[record]]
molecule = "c1ccc(C2=Nc3cccc4cccc(c34)N2)cc1"
endpoint = "normalized cell count"
result = "133%"

[[record]]
molecule = "CN(C)/C=C(/C(=O)c1ccc(F)cc1)S(=O)(=O)c1ccc(F)cc1"
endpoint = "normalized cell count"
result = "124%"

[[record]]
molecule = "CN(C)/C=C(/C(=O)c1ccccc1Cl)S(C)(=O)=O"
endpoint = "normalized cell count"
result = "84.2%"

[[record]]
molecule = "O=CN1CCN(C2CC(=O)N(c3ccc4c(c3)OCO4)C2=O)CC1 (stereo unspecified)"
endpoint = "normalized cell count"
result = "129%"

[[record]]
molecule = "CCCCn1c(CN2CCN(CCO)CC2)nc2ccccc21"
endpoint = "normalized cell count"
result = "100%"

[[record]]
molecule = "CCN(CC)CCNC(=O)c1sc2ncn(CC(=O)Nc3ccc(C)c(Cl)c3)c(=O)c2c1C"
endpoint = "normalized cell count"
result = "89.6%"

[[record]]
molecule = "COc1ccc(N2CCN(C3CC(=O)N(c4ccc5c(c4)OCCO5)C3=O)CC2)cc1 (stereo unspecified)"
endpoint = "normalized cell count"
result = "78.3%"

[[record]]
molecule = "CC(C)(C)c1cc(=O)n2c(nc3ccccc32)[nH]1"
endpoint = "normalized cell count"
result = "245%"

[[record]]
molecule = "Cc1cc(C)c2c(n1)nn1c(N3CCOCC3)cc(C)nc21"
endpoint = "normalized cell count"
result = "60.7%"

[[record]]
molecule = "O=C(NNc1cc(Cl)ccc1Cl)c1cccnc1Cl"
endpoint = "normalized cell count"
result = "114%"

[[record]]
molecule = "C=C(Br)Cn1c(CCCC)nc2ccccc21"
endpoint = "normalized cell count"
result = "72.7%"

[[record]]
molecule = "O=C(CCN1C(=O)c2ccncc2C1=O)Nc1cc(F)ccc1F"
endpoint = "normalized cell count"
result = "92%"

[[record]]
molecule = "Cc1nn(-c2ccccc2)c(Cl)c1/C=C/C(=O)c1ccc(O)cc1"
endpoint = "normalized cell count"
result = "111%"

[[record]]
molecule = "CC(Sc1nnnn1C)C(=O)NC(=O)NC1CCCCC1 (stereo unspecified)"
endpoint = "normalized cell count"
result = "91.5%"

[[record]]
molecule = "CCN1CCN(c2ccc(NC(=O)c3cnccn3)cc2)CC1"
endpoint = "normalized cell count"
result = "74.9%"

[[record]]
molecule = "O=C(COc1cccc2ccccc12)Nc1cc(S(=O)(=O)N2CCOCC2)ccc1N1CCOCC1"
endpoint = "normalized cell count"
result = "67.5%"

[[record]]
molecule = "Cc1ccsc1CNn1cnnc1SCc1ccccc1F"
endpoint = "normalized cell count"
result = "28.9%"

[[record]]
molecule = "COc1cc(C(=O)N[C@@H](C)C(=O)NCc2ccco2)cc(OC)c1OC"
endpoint = "normalized cell count"
result = "166%"

[[record]]
molecule = "O=C(Nc1ccc(N2CCN(C(=O)C3CC3)CC2)cc1)c1cccs1"
endpoint = "normalized cell count"
result = "132%"

[[record]]
molecule = "CCOC(=O)C1(Cc2ccc(Cl)cc2)CCN(C(=O)C2=NNC(=O)CC2)CC1"
endpoint = "normalized cell count"
result = "93.7%"

[[record]]
molecule = "CCOC(=O)C1(Cc2cccc(OC)c2)CCN(C(C)CC(C)(C)O)CC1 (stereo unspecified)"
endpoint = "normalized cell count"
result = "102%"

[[record]]
molecule = "Cc1nc([N+](=O)[O-])c(NCCCO)n1Cc1ccccc1"
endpoint = "normalized cell count"
result = "125%"

